# MEASUREMENT TARGET: Serine/threonine-protein kinase B-raf (Homo sapiens);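 further: reported value is the mean percent inhibition of BRAF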
# COND: at 1 µM
READOUT: inhibition (%)
Entry rule: numbers only, all in %.

These recorded examples may help you get a feel for the data.
1) Cc1nnc(-c2cccc(-c3ccc(C(=O)NCC4CC4)cc3)c2)o1 | 6.82
2) c1ccc(-c2n[nH]cc2-c2ccnc(-c3ccc(OCCn4ccnc4)cc3)c2)nc1 | 1.85

Exercise: What inhibition appears in the records for this compound with Serine/threonine-protein kinase B-raf (Homo sapiens)? O=C(O[C@H]1CN[C@H](C#Cc2cc3ncnc(Nc4ccc5c(cnn5Cc5ccccc5)c4)c3s2)C1)N1CCOCC1
Solution: -2.69

Exercise: What inhibition appears in the records for this compound with Serine/threonine-protein kinase B-raf (Homo sapiens)? CC1=C(C(=O)Nc2ccc3[nH]nc(C)c3c2)C(c2ccc(C(F)(F)F)cc2)CC(=O)N1 (stereo not given)
Solution: 38.8

Exercise: What inhibition appears in the records for this compound with Serine/threonine-protein kinase B-raf (Homo sapiens)? CCn1c(-c2nonc2N)nc2cncc(C(=O)NCCNC)c21
Solution: 7.26

Exercise: What inhibition appears in the records for this compound with Serine/threonine-protein kinase B-raf (Homo sapiens)? N#Cc1ccc2c(-c3ccnc(NC4CC4)n3)c(-c3ccc(F)cc3)nn2c1
Solution: 5.81

* * *

# MEASUREMENT TARGET: Mitogen-activated protein kinase 11 (Homo sapiens) (UniProt Q15759);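 further: reported values are averaged (mean) percent inhibition of p38beta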
# Sequence (Q15759 whole entry): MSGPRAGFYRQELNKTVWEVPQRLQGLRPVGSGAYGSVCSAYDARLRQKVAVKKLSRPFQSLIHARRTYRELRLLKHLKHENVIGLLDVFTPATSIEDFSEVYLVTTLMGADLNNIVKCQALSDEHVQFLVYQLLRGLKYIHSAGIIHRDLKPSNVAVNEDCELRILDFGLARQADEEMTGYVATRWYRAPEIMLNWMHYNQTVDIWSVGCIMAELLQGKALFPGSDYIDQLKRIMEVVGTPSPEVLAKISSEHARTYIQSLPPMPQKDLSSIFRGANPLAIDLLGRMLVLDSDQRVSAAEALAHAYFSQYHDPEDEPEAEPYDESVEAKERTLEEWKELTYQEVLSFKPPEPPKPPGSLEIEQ
# COND: at 0.1 µM
READOUT: inhibition
Number first, unit second.

These recorded examples may help you get a feel for the data.
1) N#Cc1cccc(Nc2ncc(-c3ccccc3)o2)c1 | 1.51%
2) CCCNc1cccc(-n2ncc3c(N/N=C/c4ccncc4)ncnc32)c1 | 4.76%
3) Cc1c2ccc(N(C)c3ccnc(Nc4cccc(S(N)(=O)=O)c4)n3)cc2nn1C | 7.06%
4) COc1cc(N2CCN(C(C)C)CC2)ccc1Nc1nc(Nc2cccc3ncccc23)c2cc[nH]c2n1 | -0.29%
5) O=C(O[C@H]1CN[C@H](C#Cc2cc3ncnc(Nc4ccc5c(cnn5Cc5ccccc5)c4)c3s2)C1)N1CCOCC1 | 1.51%

Exercise: What inhibition appears in the records for this compound with Mitogen-activated protein kinase 11 (Homo sapiens) (UniProt Q15759)? COC(=O)Nc1nc2cc(Oc3ccc(NC(=O)Nc4ccccc4)cc3)ccc2[nH]1
Solution: 3.05%

Exercise: What inhibition appears in the records for this compound with Mitogen-activated protein kinase 11 (Homo sapiens) (UniProt Q15759)? CC1=C(C(=O)Nc2ccc3[nH]ncc3c2)C(c2ccc(F)cc2)N=C(c2ccc(C(F)(F)F)nc2)N1 (centres undefined)
Solution: 0.24%

Exercise: What inhibition appears in the records for this compound with Mitogen-activated protein kinase 11 (Homo sapiens) (UniProt Q15759)? OCCCNc1nccc(-c2c(-c3ccc(F)cc3)nn3cc(C(F)(F)F)ccc23)n1
Solution: 22.7%

Exercise: What inhibition appears in the records for this compound with Mitogen-activated protein kinase 11 (Homo sapiens) (UniProt Q15759)? COc1cccc(-n2ncc3c(N/N=C/c4ccc(C(=O)NCCN(C)C)cc4)ncnc32)c1
Solution: 0.2%

* * *

Each entry below lists one item and its recorded inhibition value.
# MEASUREMENT TARGET: Serine/threonine-protein kinase 3 (Homo sapiens);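 further: each value is the mean inhibition of MST2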
# COND: at 1 µM
Number first, unit second.

These recorded examples may help you get a feel for the data.
1) OCCCNc1nccc(-c2c(-c3ccc(F)cc3)nn3cc(C(F)(F)F)ccc23)n1 | 2.96%
2) CNC(=O)c1sc(-n2cnc3cc(OC)c(OC)cc32)cc1OCc1ccccc1C(F)(F)F | 7.16%
3) c1cnn2ncc(-c3ccnc(NCCCN4CCOCC4)n3)c2c1 | 2.29%

Next compound, please.
Exercise: What inhibition appears in the records for this compound with Serine/threonine-protein kinase 3 (Homo sapiens)? NS(=O)(=O)c1cccc(N/C=C2\C(=O)Nc3ccccc32)c1
Solution: 21.2%

* * *

# MEASUREMENT TARGET: 5'-AMP-activated protein kinase catalytic subunit alpha-1 (Homo sapiens);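 further: enzyme tested as the AMPK alpha1 beta1 gamma1 complex, values reported as mean percent inhibition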
# COND: at 0.1 µM
# Description: GSK_PKIS: AMPKA1 (A1B1G1) mean inhibition at 0.1 uM [Nanosyn]
READOUT: inhibition (%)
Entry rule: numbers only, all in %.

These recorded examples may help you get a feel for the data.
1. COc1cc(Nc2ncc(-c3ccccc3)o2)cc(OC)c1 | 2.43
2. Fc1ccc(Nc2nccc(-c3c(-c4ccc(C(F)(F)F)cc4)nn4ncccc34)n2)cc1F | 1.79

Exercise: Can you share its inhibition? I mean this compound: CS(=O)(=O)CCNCc1ccoc1-c1ccc2ncnc(Nc3ccc(OCc4ccccc4)cc3)c2c1
Solution: -0.71

Exercise: Can you share its inhibition? I mean this compound: O=C1Nc2ccccc2/C1=C1\CCc2cc(O)ccc21
Solution: 5.27

Exercise: Can you share its inhibition? I mean this compound: NC(=O)c1ccc2c(-c3ccnc(NCCCO)n3)c(-c3ccc(F)cc3)nn2c1
Solution: 2.28

* * *

Each entry below lists one item and its recorded inhibition value.
# MEASUREMENT TARGET: Protein kinase C beta type (Homo sapiens) (UniProt P05771);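 further: mean inhibition value, enzyme form tested was the PKC-beta1 splice variant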
# Sequence (P05771 2-671 limits assumed): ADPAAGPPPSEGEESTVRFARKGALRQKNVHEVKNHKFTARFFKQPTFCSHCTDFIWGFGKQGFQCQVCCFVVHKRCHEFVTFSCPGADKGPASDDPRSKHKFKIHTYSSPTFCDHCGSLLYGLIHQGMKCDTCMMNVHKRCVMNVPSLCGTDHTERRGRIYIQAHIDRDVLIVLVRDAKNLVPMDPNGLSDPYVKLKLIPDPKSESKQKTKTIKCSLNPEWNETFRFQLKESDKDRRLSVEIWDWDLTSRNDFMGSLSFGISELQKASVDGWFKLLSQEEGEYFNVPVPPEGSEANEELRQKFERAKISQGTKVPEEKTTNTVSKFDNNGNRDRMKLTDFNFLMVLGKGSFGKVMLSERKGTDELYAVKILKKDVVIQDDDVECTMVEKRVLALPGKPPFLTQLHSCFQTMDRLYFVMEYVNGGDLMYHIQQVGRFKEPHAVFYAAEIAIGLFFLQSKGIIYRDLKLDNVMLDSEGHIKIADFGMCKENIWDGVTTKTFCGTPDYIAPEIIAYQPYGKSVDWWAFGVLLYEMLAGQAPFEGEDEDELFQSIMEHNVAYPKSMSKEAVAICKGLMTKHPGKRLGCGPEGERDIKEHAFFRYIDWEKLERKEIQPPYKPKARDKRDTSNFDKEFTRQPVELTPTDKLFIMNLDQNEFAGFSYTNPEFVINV
# COND: at 1 µM
# Description: GSK_PKIS: PKC-beta1 (splice variant) mean inhibition at 1 uM [Nanosyn]
Entry rule: numbers only, all in %.

These recorded examples may help you get a feel for the data.
1. OCCCNc1nccc(-c2c(-c3ccc(F)cc3)nn3cc(C(F)(F)F)ccc23)n1 | 5.54
2. O=C1Nc2ccccc2/C1=C1\CCc2cc(O)ccc21 | 1.16
3. NS(=O)(=O)c1cccc(N/C=C2\C(=O)Nc3ccccc32)c1 | 2.02
4. CS(=O)(=O)CCNCc1ccc(-c2ccc3ncnc(Nc4ccc(OCc5cccc(C(F)(F)F)c5)cc4)c3c2)o1 | 0.08
5. Fc1cccc(COc2ccc(Nc3ncncc3C#Cc3ccccc3)cc2Cl)c1 | 4.8

Exercise: Can you share its inhibition? I mean this compound: O=C(Nc1n[nH]c2nnc(-c3cccnc3)cc12)C1CC1
Solution: 0.6

Exercise: Can you share its inhibition? I mean this compound: CN(c1ccc(NC(=O)NCCN2CCOCC2)cc1)c1ccnc(Nc2ccc(CS(C)(=O)=O)cc2)n1
Solution: 1.54

Exercise: Can you share its inhibition? I mean this compound: NS(=O)(=O)c1ccc(N/N=C2\C(=O)Nc3cccc(CCc4ccncc4)c32)cc1
Solution: -0.96

Exercise: Can you share its inhibition? I mean this compound: COC(=O)Nc1nc2cc(Oc3ccc(NC(=O)Nc4ccccc4)cc3)ccc2[nH]1
Solution: 2.12

Exercise: Can you share its inhibition? I mean this compound: COC(=O)Nc1nc2ccc(Oc3ccc(NC(=O)Nc4cc(C(F)(F)F)ccc4F)cc3)cc2s1
Solution: 2.17

* * *

Each entry below lists one item and its recorded inhibition value.
# MEASUREMENT TARGET: Tyrosine-protein kinase FRK (Homo sapiens);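 further: values are mean inhibition of PTK5 (FRK) kinase activity from the GSK PKIS screening set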
# COND: at 0.1 µM
Entry rule: numbers only, all in %.

1. COc1ccccc1-c1cc(/C=C2\C(=O)Nc3ncc(Br)cc32)cc(Br)c1O | 0.6
2. CN(C)CCNC(=O)Nc1ccc(N(C)c2ccnc(Nc3ccc(CS(C)(=O)=O)cc3)n2)cc1 | 0.22
3. CCn1c(-c2nonc2N)nc2cncc(C(=O)NCCNC)c21 | 3.22
4. CN1CCC(n2cnc(-c3ccc(F)cc3)c2-c2ccnc(NCCO)n2)CC1 | 0.17
5. Cc1nnc(-c2cccc(-c3ccc(C(=O)NCC4CC4)cc3)c2)o1 | 1.96

Exercise: Can you share its inhibition? I mean this compound: COc1cc(N2CCN(C(C)C)CC2)ccc1Nc1nc(Nc2cccc3ncccc23)c2cc[nH]c2n1
Solution: 0.82

Exercise: Can you share its inhibition? I mean this compound: NC(=O)c1ccc2c(-c3ccnc(NCCCO)n3)c(-c3ccc(F)cc3)nn2c1
Solution: 4.1

Exercise: Can you share its inhibition? I mean this compound: CC1=C(C(=O)Nc2ccc3[nH]ncc3c2)C(c2ccc(F)cc2)N=C(c2ccc(C(F)(F)F)nc2)N1 (stereo not drawn)
Solution: -0.24

* * *

Each entry below lists one item and its recorded inhibition value.
# MEASUREMENT TARGET: Mitogen-activated protein kinase 13 (Homo sapiens) (UniProt O15264);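 further: reported value is the mean percent inhibition of p38delta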
# Sequence (whole entry): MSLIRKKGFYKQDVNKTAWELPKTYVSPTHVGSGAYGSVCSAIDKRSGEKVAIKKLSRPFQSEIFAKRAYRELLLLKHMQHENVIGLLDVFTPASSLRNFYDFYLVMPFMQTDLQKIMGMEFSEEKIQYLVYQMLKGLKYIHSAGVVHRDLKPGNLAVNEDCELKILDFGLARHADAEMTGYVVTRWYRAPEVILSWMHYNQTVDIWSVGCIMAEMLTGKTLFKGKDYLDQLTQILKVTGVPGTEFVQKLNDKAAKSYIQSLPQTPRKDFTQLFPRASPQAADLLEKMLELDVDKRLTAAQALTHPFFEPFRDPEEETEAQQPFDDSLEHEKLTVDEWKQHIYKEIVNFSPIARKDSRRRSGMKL
# COND: at 0.1 µM
Entry rule: numbers only, all in %.

These recorded examples may help you get a feel for the data.
1) FC(F)(F)CNc1nccc(-c2cnn3ncccc23)n1 | 2.13
2) O=C(O[C@H]1CN[C@H](C#Cc2cc3ncnc(Nc4ccc(OCc5cccc(F)c5)c(Cl)c4)c3s2)C1)N1CCOCC1 | 1.84

Exercise: Can you share its inhibition? I mean this compound: CNC(=O)c1ncccc1Nc1nc(Nc2cc3c(cc2OC)CCCN3C(=O)CN(C)C)nc2[nH]ccc12
Solution: 8.55

Exercise: Can you share its inhibition? I mean this compound: CS(=O)(=O)Nc1ccc(-c2ccc3c(NC(=O)C4CC4)n[nH]c3c2)cc1
Solution: 3.39

Exercise: Can you share its inhibition? I mean this compound: CC(C)c1ccc(-c2cc(-c3c[nH]nc3-c3ccccn3)ccn2)cc1
Solution: 5.51

Exercise: Can you share its inhibition? I mean this compound: Cn1c(-c2nonc2N)nc2cnccc21
Solution: 2.23

Exercise: Can you share its inhibition? I mean this compound: CCS(=O)(=O)c1ccc(OC)c(Nc2ncc(-c3cccc(C(C)=O)c3)o2)c1
Solution: -0.9

Exercise: Can you share its inhibition? I mean this compound: CN(C)CCNC(=O)Nc1ccc(N(C)c2ccnc(Nc3ccc(CS(C)(=O)=O)cc3)n2)cc1
Solution: 1.99

Exercise: Can you share its inhibition? I mean this compound: Fc1cccc(COc2ccc(Nc3ncncc3C#Cc3ccccc3)cc2Cl)c1
Solution: -1.02
